# Test system: AncSZ
# assay: phosphorylation enrichment, bacterial display (enrichment ratio); higher = better substrate or ligand; peptides without Tyr show the background
metric: phosphorylation enrichment
Quick one: just the number, no unit, thanks!

Give the reported phosphorylation enrichment for PGPPGYCDSSH [COL12A1_Y3043_Q3048H] (system: AncSZ).
1.09

For AncSZ, provide phosphorylation enrichment of VMAALYGRLFE [BTD_Y536_T532M_YF] please.
0.981

Report phosphorylation enrichment for EADRKYEEVAG [TPM3_Y163_R168G] tested on AncSZ.
1.12

# get_value(readout= phosphorylation enrichment, system= AncSZ) for SSMIDYKPLEK [MYOC_Y479_N480K]
0.562

Which measured phosphorylation enrichment belongs to ETVHRYVELLD [AP1S3_Y87_I83T] , tested on AncSZ?
0.905

Provide the documented phosphorylation enrichment with AncSZ as the system for TLLERYGMTKI [ACSF3_Y355_E359K]
0.751

Which measured phosphorylation enrichment belongs to GRQWNYVASML [KLHL4_Y552_S557L] , tested on AncSZ?
0.731

Kindly state the measured phosphorylation enrichment obtained for QRALLYEDTLF [UNC13D_Y56_A59T_YF] with AncSZ.
1.58

For the record EDEGLYTVRVP [MYOM3_Y343_M344T] , what value of phosphorylation enrichment is listed for AncSZ?
1.64

Give AncSZ phosphorylation enrichment for KNEVFYQCPDQ [FBXO3_Y223]
3.2

Give the reported phosphorylation enrichment for TLARLYHRDST [LRIG1_Y1029_P1031R] (system: AncSZ).
0.761

// map FMCKVYSDRQP [FGFR1_Y280_P283R] to recorded phosphorylation enrichment (system: AncSZ)
1.52

For the record FAADFYKLLGN [ROR2_Y646_YF] , what value of phosphorylation enrichment is listed for AncSZ?
1.02

AncSZ / phosphorylation enrichment / VDASFYGGRGV [ANTXR2_Y381_YF] : value?
0.561

Form entry - test system: AncSZ; read-out: phosphorylation enrichment; sequence: ECKLFYSRKEG [PTPN11_Y263_L262F]
1.08

# returns recorded phosphorylation enrichment (system: AncSZ) for GVTLLYFGRFN [ADGRD1_Y85_YF]
1.54

What is its phosphorylation enrichment for AncSZ? Entry: KKARAYGPGIE [FLNA_Y287]
0.576

What is its phosphorylation enrichment for AncSZ? Entry: KDDEKYLDVSR [MTM1_Y260_I264S]
0.951

Hello, I am looking for reported phosphorylation enrichment with AncSZ for LHRAHYDLCHT [AHSG_Y314_R317C] . Could you help?
0.814

Entry LTMAPYSSVSL [FAM81A_Y24] , system AncSZ: what phosphorylation enrichment was measured?
0.628

Please tell me: phosphorylation enrichment of LTTPTFGDLNH [TUBB_Y222_Y222F] , system AncSZ?
0.729

AncSZ / phosphorylation enrichment / YLQEIYNSNNQ [FGG_Y140] : value?;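 note: frequency after pTyr selection over input frequency; kinase dosed for 20-30% of maximal phosphorylation in three min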
0.918

Identify the measured phosphorylation enrichment of EERNTYVNTTL [TEK_Y1102_K1100N] for AncSZ.
0.694

Tell me reported phosphorylation enrichment for TEFIQYMRRKN [MAX_Y73_YF] , tested with AncSZ.
0.701

Requested read-out phosphorylation enrichment, target or system AncSZ, entry TSEASYFKSLN [NGEF_Y288_YF];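 note: frequency after pTyr selection over input frequency; kinase dosed for 20-30% of maximal phosphorylation in three min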
0.972

# get_value(readout= phosphorylation enrichment, system= AncSZ) for LDLSYYPTSSS [EMD_Y182];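 note: frequency after pTyr selection over input frequency; kinase dosed for 20-30% of maximal phosphorylation in three min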
2.17

Missing value: phosphorylation enrichment, AncSZ, entry GDSVQYNRTTD [MLPH_Y454_P451S] . Fill in?
0.612

Param readout = phosphorylation enrichment; param system = AncSZ; param query = PMDGEYFTLQI [TP53_Y327_L323M] ; response: value;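 note: 11-residue human phosphosite peptides and single-mutation variants displayed on the E. coli surface, counted by deep sequencing, each peptide's frequency after selection divided by its frequency in the unselected input library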;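 note: frequency after pTyr selection over input frequency; kinase dosed for 20-30% of maximal phosphorylation in three min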
4.04

Lab note: need phosphorylation enrichment with AncSZ for entry TYGQVYKGRHV [TNIK_Y40] , please look it up.
0.484
